Just for reference, ChEMBL document CHEMBL1157938 is where these values come from.

# key: entry, value: IC50
target: DNA topoisomerase 1 (Homo sapiens, UniProt P11387); experiment: Inhibition of human DNA topoisomerase 1-mediated relaxation of supercoiled DNA by gel electrophoresis
Sequence (P11387 whole entry): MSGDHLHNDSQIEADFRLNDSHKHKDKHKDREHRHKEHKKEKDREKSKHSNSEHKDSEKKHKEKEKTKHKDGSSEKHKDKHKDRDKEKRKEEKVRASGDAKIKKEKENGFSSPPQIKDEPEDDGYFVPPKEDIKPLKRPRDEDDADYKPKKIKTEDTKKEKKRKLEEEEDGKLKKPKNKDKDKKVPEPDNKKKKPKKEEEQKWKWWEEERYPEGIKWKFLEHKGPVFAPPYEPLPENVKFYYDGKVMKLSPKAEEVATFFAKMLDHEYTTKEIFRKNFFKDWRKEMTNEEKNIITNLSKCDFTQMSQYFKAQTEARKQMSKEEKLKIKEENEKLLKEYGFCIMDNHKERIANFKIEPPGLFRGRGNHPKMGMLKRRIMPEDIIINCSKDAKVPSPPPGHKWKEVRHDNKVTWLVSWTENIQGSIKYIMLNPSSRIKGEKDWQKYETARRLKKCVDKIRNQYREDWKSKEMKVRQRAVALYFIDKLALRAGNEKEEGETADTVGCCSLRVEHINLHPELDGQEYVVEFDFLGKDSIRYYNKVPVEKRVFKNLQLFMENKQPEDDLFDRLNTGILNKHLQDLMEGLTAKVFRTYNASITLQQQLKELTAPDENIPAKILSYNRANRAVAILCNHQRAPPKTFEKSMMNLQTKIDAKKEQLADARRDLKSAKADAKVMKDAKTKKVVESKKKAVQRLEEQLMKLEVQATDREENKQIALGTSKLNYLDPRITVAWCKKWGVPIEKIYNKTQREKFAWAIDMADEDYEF

Example molecules with recorded IC50:
[
  {
    "molecule": "C/C=C(\\C)C(=O)O[C@H]1[C@H](OC(=O)/C(C)=C/C)[C@]2(CO)[C@H](O)[C@H](O)[C@]3(C)C(=CC[C@@H]4[C@@]5(C)CC[C@H](O[C@@H]6O[C@H](C(=O)O)[C@@H](O)[C@H](O[C@@H]7O[C@@H](CO)[C@H](O)[C@H]7O)[C@H]6O[C@@H]6O[C@H](CO)[C@@H](O)[C@H](O)[C@H]6O)[C@](C)(CO)[C@@H]5CC[C@]43C)[C@@H]2CC1(C)C [AESCULIOSIDE IIID]",
    "assayResult": "48.6 µM"
  },
  {
    "molecule": "C/C=C(/CC)C(=O)O[C@H]1[C@H](OC(C)=O)[C@]2(CO)[C@H](O)[C@H](O)[C@]3(C)C(=CC[C@@H]4[C@@]5(C)CC[C@H](O[C@@H]6O[C@H](C(=O)O)[C@@H](O)[C@H](O[C@@H]7OC[C@H](O)[C@H](O)[C@H]7O)[C@H]6O[C@@H]6O[C@H](CO)[C@@H](O)[C@H](O)[C@H]6O)C(C)(C)[C@@H]5CC[C@]43C)[C@@H]2CC1(C)C [SANICULASAPONIN III]",
    "assayResult": "> 250 µM"
  },
  {
    "molecule": "C/C=C(/C)C(=O)O[C@H]1[C@H](O)C(C)(C)C[C@H]2C3=CC[C@@H]4[C@@]5(C)CC[C@H](O[C@@H]6O[C@H](C(=O)O)[C@@H](O)[C@H](O[C@@H]7OC[C@@H](O)[C@H](O)[C@H]7O)[C@H]6O[C@@H]6O[C@H](CO)[C@@H](O)[C@H](O)[C@H]6O)C(C)(C)[C@@H]5CC[C@@]4(C)[C@]3(C)C[C@@H](O)[C@]21CO [ERYNGIOSIDE F]",
    "assayResult": "> 250 µM"
  },
  {
    "molecule": "C/C=C(/C)C(=O)O[C@H]1[C@H](OC(=O)C(C)CC)[C@]2(CO)[C@H](O)[C@H](O)[C@]3(C)C(=CC[C@@H]4[C@@]5(C)CC[C@H](O[C@@H]6O[C@H](C(=O)O)[C@@H](O)[C@H](O[C@@H]7O[C@@H](CO)[C@H](O)[C@H]7O)[C@H]6O[C@@H]6O[C@H](CO)[C@H](O)[C@H](O)[C@H]6O)C(C)(C)[C@@H]5CC[C@]43C)[C@@H]2CC1(C)C (stereo not given in full) [AESCULIOSIDE IVA]",
    "assayResult": "51.8 µM"
  }
]

Value lookup for IC50; key = C/C=C(/C)C(=O)O[C@H]1[C@H](O)[C@]2(CO)[C@H](O)C[C@]3(C)C(=CC[C@@H]4[C@@]5(C)CC[C@H](O[C@@H]6O[C@H](C(=O)O)[C@@H](O)[C@H](O[C@@H]7O[C@@H](CO)[C@H](O)[C@H]7O)[C@H]6O[C@@H]6O[C@H](CO)[C@H](O)[C@H](O)[C@H]6O)C(C)(C)[C@@H]5CC[C@]43C)[C@@H]2CC1(C)C [AESCULIOSIDE IIC]
111 µM
